system: UACC-62; experiment: NCI tumour cell line growth inhibition, 48 h
Active and inactive are the calls of the source. Cut-off read from the data, not from the text of the source: active = GI50 up to about 1.1 µM and inactive = higher.
Classes to choose from: active, inactive

>  <compound>
COc1ccc(-c2oc3cc(O)cc(O)c3c(=O)c2OC)cc1 [ERMANIN]

>  <label>
inactive

$$$$

Problem: State the result this test recorded for CCN(CC)c1ccc2cc(C(=O)Nc3ccccn3)c(=N)oc2c1 .
Result: inactive

Problem: For N#C[BH2-][n+]1ccc(C(=O)NNCc2ccccc2)cc1 then?
Result: inactive

Problem: Also need COc1ccc(C2=Nc3c(nc(SC)[nH]c3=O)NC(c3ccccc3)C2)cc1 (configuration not stated) , thanks.
Result: inactive

----------
system: SNB-75; assay: NCI tumour cell line growth inhibition, 48 h
Active and inactive are the calls of the source. No stated cut-off is given here; in the data, active = GI50 up to about 1.1 µM and inactive = higher.
Please state which outcome applies, choosing from class 1 for active, class 0 for inactive

Problem: Tell me the recorded outcome of this test for Cc1c(CN)c(C)c(CN)c(C)c1CN .
Result: class 0

----------
system: MDA-MB-231; assay: NCI tumour cell line growth inhibition, 48 h
Active and inactive are the calls of the source. Rule as the data show it: active = GI50 up to about 1.1 µM and inactive = higher.
Hi! Could you answer with just one of these? yes (active), no (inactive)

// below: answered molecules
>  <molecule>
CC(=O)Nc1ccccc1C=C1c2ccccc2-c2ccccc21

>  <label>
no

$$$$
>  <molecule>
COc1cc(C2S/C(=C/c3ccccc3)C(=O)N2c2cc(Cl)ccc2Cl)cc(OC)c1OC (stereo not drawn)

>  <label>
no

$$$$
>  <molecule>
Cc1c(Cl)c(C)c(Cl)c(O)c1Cl

>  <label>
no

$$$$
>  <molecule>
c1ccc(-c2cc(-c3ccncc3)cc(-c3ccncc3)n2)cc1

>  <label>
no

$$$$
>  <molecule>
Cc1c(CN)c(C)c(CN)c(C)c1CN

>  <label>
no

$$$$
>  <molecule>
N#Cc1c(-c2ccco2)c2c(n(C3OC(CO)C(O)C(O)C3O)c1=S)CCCC2 (stereo not drawn)

>  <label>
no

$$$$
>  <molecule>
Cc1cn([C@@H]2C[C@H](CO)[C@@H]2O)c(=O)[nH]c1=O

>  <label>
no

$$$$
>  <molecule>
COc1nc2ccc(Cl)c(C(O)c3ccccc3)c2nc1OC (stereo not drawn)

>  <label>
no

$$$$

Problem: Recorded test outcome, item COc1cc(/C=N\N(C)C)cc(/C=N/N(C)C)c1O
Result: no

----------
system: HL-60; experiment: NCI tumour cell line growth inhibition, 48 h
Activity calls are given as the source filed them. Rule as the data show it: active = GI50 up to about 1.1 µM and inactive = higher.
Collected GI50 values appear next to each entry.

Worked examples, 5 molecules total:
>  <molecule>
COc1cccc(C23CCN(C)C(CC(O)C2)C3)c1OC (centres undefined)

>  <parameter.measured>
GI50

>  <endpoint.result>
> 100 µM (inactive)

$$$$
>  <molecule>
COc1c(OC(C)=O)ccc(/C=C2\N=C(C)OC2=O)c1[N+](=O)[O-]

>  <parameter.measured>
GI50

>  <endpoint.result>
> 100 µM (inactive)

$$$$
>  <molecule>
COc1cc2c3c(c1OC)C1(C=CC(=O)C=C1)CC3NCC2 (centres undefined)

>  <parameter.measured>
GI50

>  <endpoint.result>
32.6 µM (inactive)

$$$$
>  <molecule>
CN(C)c1ccc(/C=C/c2ccnc3ccccc23)cc1

>  <parameter.measured>
GI50

>  <endpoint.result>
31.6 µM (inactive)

$$$$
>  <molecule>
CN(Cc1cnc2c(n1)C(N)=NN(N)N2)c1ccc(C(=O)NC(CCP(=O)(O)O)C(=O)O)cc1 (centres undefined)

>  <parameter.measured>
GI50

>  <endpoint.result>
0.252 µM (active)

$$$$

Please look at the following molecule next.
Problem: Given the molecule CCOC(=O)NC(=O)c1cn(CCN2CCN(C(=O)NCCCCCCNC(=O)N3CCN(CCn4cc(C(=O)NC(=O)OCC)c(=O)n(CCN(CC)CC)c4=O)CC3)CC2)c(=O)n(CCC(CC)CC)c1=O , what is its reported GI50?
Result: > 100 µM (inactive)
